Origin of values: patent US20150175530A1

Listed compounds paired with reported Protein Binding PB (Geomean of fold change in MIC)
# Test system: 3 P. aeruginosa strains (APAE001, APAE002, APAE006)
# Assay Details: Protein binding: fold change in MIC in the presence of 2% HSA and 0.05% AGP, Geomean of 3 strains
# Assay type: cell-based, Pseudomonas aeruginosa
# Assay Conditions: MIC in the presence of 2% HSA and 0.05% AGP divided by MIC in the absence; Geomean of 3 P. aeruginosa strains (APAE001, APAE002, APAE006)
Measurement Name: Protein Binding PB (Geomean of fold change in MIC)

Compound: CNC(C)(C)[C@H](NC(=O)c1ccc(C#CC#CCC(O)CO)cc1)C(=O)NO (stereo partly shown)
Experimental Result: 1.6
//
Compound: CC(C)(N)[C@H](NC(=O)c1ccc(C#C/C=C/C(O)CO)cc1)C(=O)NO (stereo partly shown)
Experimental Result: 1.0
//
Compound: CC(C)(N)[C@H](NC(=O)c1ccc(C#CC#CCC(O)CO)cc1)C(=O)NO (stereo partly shown)
Experimental Result: 1.9
//
Compound: C[C@@H](O)[C@H](NC(=O)c1ccc(C#CC#CCCO)cc1)C(=O)NO
Experimental Result: 2

====

# Test system: 3 P. aeruginosa strains (APAE001, APAE002, APAE006)
# Assay Details: Protein binding: fold change in MIC in the presence of 2% HSA and 0.05% AGP, Geomean of 3 strains
# Type: cell-based, Pseudomonas aeruginosa
# Assay Conditions: MIC in the presence of 2% HSA and 0.05% AGP divided by MIC in the absence; Geomean of 3 P. aeruginosa strains (APAE001, APAE002, APAE006)
Could you mark each record Satisfied if its Protein Binding PB (Geomean of fold change in MIC) falls strictly under 2, and Not satisfied if it equals or exceeds it?

Compound: CC(C)(N)[C@H](NC(=O)c1ccc(C#CC#C[C@H]2CC[C@](O)(CO)CC2)cc1)C(=O)NO [Compound 33B]
Tested On: 3 P. aeruginosa strains (APAE001, APAE002, APAE006)
Category Label: Not satisfied
--
Compound: CC(C#CC#Cc1ccc(C(=O)N[C@H](C(=O)NO)C(C)(C)N)cc1)C(O)CO (single isomer, unassigned) [Compound 20B]
Tested On: 3 P. aeruginosa strains (APAE001, APAE002, APAE006)
Category Label: Satisfied
--
Compound: CC(C)(N)[C@H](NC(=O)c1ccc(C#CC#CC2C[C@H]2C(O)CO)cc1)C(=O)NO (mixture of isomers) [Compound 25]
Tested On: 3 P. aeruginosa strains (APAE001, APAE002, APAE006)
Category Label: Not satisfied
--
Compound: CCNC(C)(C)[C@H](NC(=O)c1ccc(C#CC#CCCO)cc1)C(=O)NO [Compound 10]
Tested On: 3 P. aeruginosa strains (APAE001, APAE002, APAE006)
Category Label: Not satisfied
--
Compound: Cc1cc(CNC(C)(C)[C@H](NC(=O)c2ccc(C#CC#CCCO)cc2)C(=O)NO)no1 [Compound 12]
Tested On: 3 P. aeruginosa strains (APAE001, APAE002, APAE006)
Category Label: Not satisfied
--
Compound: C[C@H](O)C#CC#Cc1ccc(C(=O)N[C@H](C(=O)NO)[C@@H](C)O)cc1 [Compound 42]
Tested On: 3 P. aeruginosa strains (APAE001, APAE002, APAE006)
Category Label: Not satisfied

====

# System: 3 P. aeruginosa strains (APAE001, APAE002, APAE006)
# Assay Details: Protein binding: fold change in MIC in the presence of 2% HSA and 0.05% AGP, Geomean of 3 strains
# Assay type: cell-based, Pseudomonas aeruginosa
# Assay Conditions: MIC in the presence of 2% HSA and 0.05% AGP divided by MIC in the absence; Geomean of 3 P. aeruginosa strains (APAE001, APAE002, APAE006)
Listed compounds paired with reported Protein Binding PB (Geomean of fold change in MIC)
Measurement Name: Protein Binding PB (Geomean of fold change in MIC)

Compound: CC(C)(N)[C@H](NC(=O)c1ccc(C#CC#CC(O)(CO)CCl)cc1)C(=O)NO (stereo partly shown) [Compound 19]
Tested On: 3 P. aeruginosa strains (APAE001, APAE002, APAE006)
Experimental Result: 1.0
--
Compound: C[C@H](O)C#CC#Cc1ccc(C(=O)N[C@H](C(=O)NO)C(C)(C)O)cc1 [Compound 40]
Tested On: 3 P. aeruginosa strains (APAE001, APAE002, APAE006)
Experimental Result: 2.6
--
Compound: CC(C)(N)[C@H](NC(=O)c1ccc(C#CC#C[C@H]2C[C@@](O)(CO)C2)cc1)C(=O)NO [Compound 29]
Tested On: 3 P. aeruginosa strains (APAE001, APAE002, APAE006)
Experimental Result: 2.9
--
Compound: CC(C)(N)[C@H](NC(=O)c1ccc(C#CC#C[C@@H](O)CCO)cc1)C(=O)NO [Compound 54]
Tested On: 3 P. aeruginosa strains (APAE001, APAE002, APAE006)
Experimental Result: 2.0
--
Compound: CNC(C)(C)[C@H](NC(=O)c1ccc(C#CC#C[C@H](C)O)cc1)C(=O)NO [Compound 16]
Tested On: 3 P. aeruginosa strains (APAE001, APAE002, APAE006)
Experimental Result: 3.6
--
Compound: COC(C#CC#Cc1ccc(C(=O)N[C@H](C(=O)NO)C(C)(C)N)cc1)CO (stereo partly shown) [Compound 47]
Tested On: 3 P. aeruginosa strains (APAE001, APAE002, APAE006)
Experimental Result: 2.6
--
Compound: CC(C)(N)[C@H](NC(=O)c1ccc(C#CC#CC[C@]2(O)C[C@@H](CO)C2)cc1)C(=O)NO [Compound 28]
Tested On: 3 P. aeruginosa strains (APAE001, APAE002, APAE006)
Experimental Result: 1.3
--
Compound: CC(C)(N)[C@H](NC(=O)c1ccc(C#CC#CC[C@@H](O)CO)cc1)C(=O)NO [Compound 37]
Tested On: 3 P. aeruginosa strains (APAE001, APAE002, APAE006)
Experimental Result: 1.4
--
Compound: CC(C)(N)[C@H](NC(=O)c1ccc(C#C/C=C/CC(O)CO)cc1)C(=O)NO (stereo partly shown) [Compound 52]
Tested On: 3 P. aeruginosa strains (APAE001, APAE002, APAE006)
Experimental Result: 1.0
--
Compound: CC(C)(O)[C@H](NC(=O)c1ccc(C#CC#CCCO)cc1)C(=O)NO [Compound 34]
Tested On: 3 P. aeruginosa strains (APAE001, APAE002, APAE006)
Experimental Result: 2.8
--
Compound: CC(C)(N)[C@H](NC(=O)c1ccc(C#CC#C[C@H]2[C@@H](CO)[C@H]2CO)cc1)C(=O)NO [Compound 23B]
Tested On: 3 P. aeruginosa strains (APAE001, APAE002, APAE006)
Experimental Result: 2.0
--
Compound: CC(C)(N)[C@H](NC(=O)c1ccc(C#CC#CC2C[C@@H](O)[C@H]2CO)cc1)C(=O)NO (single isomer, unassigned) [Compound 31A]
Tested On: 3 P. aeruginosa strains (APAE001, APAE002, APAE006)
Experimental Result: 2.5
--
Compound: C[C@H](O)C#CC#Cc1ccc(C(=O)N[C@H](C(=O)NO)[C@@H](N)C(F)(F)F)cc1 [Compound 59]
Tested On: 3 P. aeruginosa strains (APAE001, APAE002, APAE006)
Experimental Result: 3.2
--
Compound: CC(C)(N)[C@H](NC(=O)c1ccc(C#CCO)cc1)C(=O)NO [Compound 2]
Tested On: 3 P. aeruginosa strains (APAE001, APAE002, APAE006)
Experimental Result: 1.3
--
Compound: CC(C)(N)[C@H](NC(=O)c1ccc(C#CC#C[C@]2(O)C[C@@H](CO)C2)cc1)C(=O)NO [Compound 27]
Tested On: 3 P. aeruginosa strains (APAE001, APAE002, APAE006)
Experimental Result: 1.8
--
Compound: CC(O)(C#CC#Cc1ccc(C(=O)N[C@H](C(=O)NO)C(C)(C)N)cc1)CO (stereo partly shown) [Compound 50]
Tested On: 3 P. aeruginosa strains (APAE001, APAE002, APAE006)
Experimental Result: 1.6
--
Compound: CC(C)(NCCO)[C@H](NC(=O)c1ccc(C#CC#CCCO)cc1)C(=O)NO [Compound 11]
Tested On: 3 P. aeruginosa strains (APAE001, APAE002, APAE006)
Experimental Result: 1.5
--
Compound: CC(C)(N)[C@H](NC(=O)c1ccc(C#CC#CC2CC(O)[C@@H]2CO)cc1)C(=O)NO (single isomer, unassigned) [Compound 30B]
Tested On: 3 P. aeruginosa strains (APAE001, APAE002, APAE006)
Experimental Result: 3.2
--
Compound: C[C@H](O)C#CC#Cc1ccc(C(=O)N[C@H](C(=O)NO)C(C)(C)N)cc1 [Compound 14]
Tested On: 3 P. aeruginosa strains (APAE001, APAE002, APAE006)
Experimental Result: 3.4
--
Compound: C[C@@H](O)C#CC#Cc1ccc(C(=O)N[C@H](C(=O)NO)C(C)(C)N)cc1 [Compound 15]
Tested On: 3 P. aeruginosa strains (APAE001, APAE002, APAE006)
Experimental Result: 2.3
--
Compound: CC(C)(N)[C@H](NC(=O)c1ccc(C#CC#C[C@@H]2C[C@@H](O)[C@@H](O)C2)cc1)C(=O)NO [Compound 32]
Tested On: 3 P. aeruginosa strains (APAE001, APAE002, APAE006)
Experimental Result: 5.5
--
Compound: CC(C#CC#Cc1ccc(C(=O)N[C@H](C(=O)NO)C(C)(C)N)cc1)C(O)CO (single isomer, unassigned) [Compound 20A]
Tested On: 3 P. aeruginosa strains (APAE001, APAE002, APAE006)
Experimental Result: 2.0
--
Compound: CNC(C)(C)[C@H](NC(=O)c1ccc(C#CC#CC[C@H](O)CO)cc1)C(=O)NO [Compound 43]
Tested On: 3 P. aeruginosa strains (APAE001, APAE002, APAE006)
Experimental Result: 1.6
--
Compound: CNC(C)(C)[C@H](NC(=O)c1ccc(C#CC#CCO)cc1)C(=O)NO [Compound 5]
Tested On: 3 P. aeruginosa strains (APAE001, APAE002, APAE006)
Experimental Result: 1.6
--
Compound: CN[C@H](C)[C@H](NC(=O)c1ccc(C#CC#CCO)cc1)C(=O)NO [Compound 56]
Tested On: 3 P. aeruginosa strains (APAE001, APAE002, APAE006)
Experimental Result: 2.5
--
Compound: CNC(C)(C)[C@H](NC(=O)c1ccc(C#CC#CCCO)cc1)C(=O)NO [Compound 9]
Tested On: 3 P. aeruginosa strains (APAE001, APAE002, APAE006)
Experimental Result: 1.5
--
Compound: CC(C)(N)[C@H](NC(=O)c1ccc(C#CC#CC(O)CO)cc1)C(=O)NO (stereo partly shown) [Compound 17]
Tested On: 3 P. aeruginosa strains (APAE001, APAE002, APAE006)
Experimental Result: 1.5
--
Compound: CC(C)(N)[C@H](NC(=O)c1ccc(C#CC#C[C@H]2CC2(CO)CO)cc1)C(=O)NO [Compound 24]
Tested On: 3 P. aeruginosa strains (APAE001, APAE002, APAE006)
Experimental Result: 2.5
--
Compound: CC(C)(N)[C@H](NC(=O)c1ccc(C#CC#CC2(O)CCC(CO)C2)cc1)C(=O)NO (stereo partly shown) [Compound 57]
Tested On: 3 P. aeruginosa strains (APAE001, APAE002, APAE006)
Experimental Result: 1.6
--
Compound: CNC(C)(C)[C@H](NC(=O)c1ccc(C#CC#CC(O)CO)cc1)C(=O)NO (stereo partly shown) [Compound 51]
Tested On: 3 P. aeruginosa strains (APAE001, APAE002, APAE006)
Experimental Result: 1.6
--
Compound: C[C@@H](CO)[C@H](O)C#CC#Cc1ccc(C(=O)N[C@H](C(=O)NO)C(C)(C)N)cc1 [Compound 53]
Tested On: 3 P. aeruginosa strains (APAE001, APAE002, APAE006)
Experimental Result: 2.0
